- Tested on: B16-F10 murine melanoma cell line
- Protocol description: Cytotoxicity in B16-F10 cells (MTT)
- Type: cell-based
- Experimental parameters: 150 µM, 48 h
Test readout: Cytotoxicity study in B16F10 cells % viability (%)
Give bare numbers, in %.

O=C(/C=C/c1ccc(Cl)cc1Cl)NCCCCCO
102.3

Below are some compounds; for each one, tell me its Cytotoxicity study in B16F10 cells % viability.
1. O=C(/C=C/c1ccccc1)NCCCCCCO
2. O=C(/C=C/c1ccc(Cl)cc1)NCCCCO

[109.2, 32.7]

// Cytotoxicity study in B16F10 cells % viability (B16-F10 murine melanoma cell line) for O=C(/C=C/c1ccccc1)NCCCCO = 108.9

* * *

- Tested on: Hepatocarcinoma HepG2
- Protocol description: Safety, LDH test in HepG2
- Type: cell-based
- Experimental parameters: 100 µM; 48 hours; positive control Triton X-100
Test readout: Hepatocarcinoma HepG2 LDH

# annotated cases, reported Hepatocarcinoma HepG2 LDH shown
O=C(/C=C/c1ccc(Cl)cc1)NCCO [H-427/21]
3.09 percentage of positive control
O=C(/C=C/c1ccccc1)NCCCCCO [Compound A-133]
5.31 percentage of positive control
Cc1ccc(/C=C/C(=O)NCCCCCO)cc1 [H-415/21]
3.90 percentage of positive control
O=C(/C=C/c1ccc(Cl)cc1)NCCCCCO [Compound A-111]
4.90 percentage of positive control

// O=C(/C=C/c1ccc(Cl)cc1)NCCCO [H-330/21] : Hepatocarcinoma HepG2 LDH value = 5.38 percentage of positive control

* * *

- System: neuroblastoma SH-SY5Y
- Protocol description: Safety, LDH test in SH-SY5Y
- Type: cell-based
- Experimental parameters: 100 µM; 48 hours; positive control Triton X-100
Test readout: Neuroblastoma SH-SYSY LDH

O=C(/C=C/c1ccc(Cl)cc1)NCCO
3.09 percentage of positive control
O=C(/C=C/c1ccc(Cl)cc1)NCCCO
6.19 percentage of positive control
O=C(/C=C/c1ccc(Cl)cc1)NCCCCCO
4.90 percentage of positive control

Below are some molecules; for each one, tell me its Neuroblastoma SH-SYSY LDH.
1. Cc1ccc(/C=C/C(=O)NCCCCCO)cc1
2. O=C(/C=C/c1ccccc1)NCCCCCO

3.90 percentage of positive control
5.33 percentage of positive control

* * *

- System: S. typhimurium TA1537
- Protocol description: Ames microplate test, TA1537;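 note: reference level is the mean solvent-control yellow wells plus SD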
- Assay type: cell-based, Salmonella typhimurium
- Experimental parameters: 2.0 mM, +S9
Test readout: Increase in the number of yellow wells compared to the reference level

O=C(/C=C/c1ccc(Cl)cc1)NCCCCCO
0.27
O=C(/C=C/c1ccccc1)NCCCCCCO
1.00
O=C(/C=C/c1ccccc1)NCCCCCO
0.27

// CCC(O)CNC(=O)/C=C/c1ccc(Cl)cc1 (stereo not shown) : Increase in the number of yellow wells compared to the reference level value = 0.00

* * *

- Tested on: S. typhimurium TA98
- Protocol description: Ames microplate test, TA98;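 note: reference level is the mean solvent-control yellow wells plus SD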
- Type: cell-based, Salmonella typhimurium
- Experimental parameters: 0.5 mM, without S9
Test readout: Increase in the number of yellow wells compared to the reference level
Give bare numbers.

# annotated cases, reported Increase in the number of yellow wells compared to the reference level shown
Cc1ccc(/C=C/C(=O)NCCCCCO)cc1
0.47
O=C(/C=C/c1ccc(Cl)cc1)NCCCCCO
0.7
CC(CO)NC(=O)/C=C/c1ccc(Cl)cc1 (stereo not drawn)
0.24
O=C(/C=C/c1ccccc1)NCCCCCO
0.44
O=C(/C=C/c1ccccc1)NCCCCCCO
0.27

// CCC(O)CNC(=O)/C=C/c1ccc(Cl)cc1 (stereo not drawn) : Increase in the number of yellow wells compared to the reference level value = 0.27
